Test system: Klebsiella pneumoniae
method: Inhibition of RND efflux pump in Klebsiella pneumoniae isolate 116381 assessed as potentiation of minocycline-induced antibacterial activity by measuring minocycline MIC at 8 ug/ml after 18 to 24 hrs by microbroth dilution assay (reference value: 128 ug/ml)
property: MIC

Observe how each entry below is paired with its result.
c1ccc2c(CN3CCNCC3)cccc2c1: 128 mg/L
Cl.Cl.Cl.Cl.Cl.Cl.NC[C@H]1O[C@H](O[C@H]2[C@H](OCCCCCCCCCCCCN3CC[C@@H](c4ccc(F)cc4)[C@H](COc4ccc5c(c4)OCO5)C3)[C@@H](O[C@H]3O[C@H](CO)[C@@H](O)[C@H](N)[C@H]3O)[C@H](N)C[C@@H]2N)[C@H](N)C[C@@H]1O: 32 mg/L
Fc1ccc([C@@H]2CCNC[C@H]2COc2ccc3c(c2)OCO3)cc1: 128 mg/L
Cl.Cl.Cl.Cl.Cl.Cl.Cl.NC[C@H]1O[C@H](O[C@H]2[C@H](OCCCCCCCCCCCCN3CCN(Cc4cccc5ccccc45)CC3)[C@@H](O[C@H]3O[C@H](CO)[C@@H](O)[C@H](N)[C@H]3O)[C@H](N)C[C@@H]2N)[C@H](N)C[C@@H]1O: 16 mg/L
NC[C@H]1C[C@H](C(=O)N[C@H](CCc2ccccc2)C(=O)Nc2ccc3ccccc3c2)N(CCCCCCCCCCCCO[C@@H]2[C@@H](O[C@H]3O[C@H](CO)[C@@H](O)[C@H](N)[C@H]3O)[C@H](N)C[C@H](N)[C@H]2O[C@H]2O[C@H](CN)[C@@H](O)C[C@H]2N)C1: 4 mg/L

Okay, next one:
Request body: readout MIC, system Klebsiella pneumoniae, query `NC[C@@H]1CN[C@@H](C(=O)N[C@H](CCc2ccccc2)C(=O)Nc2ccc3ccccc3c2)C1` . Return the value.
4 mg/L

---

# fractional inhibitory concentration index (FICI) values compiled below
Tested on: Pseudomonas aeruginosa PAO1
method: Inhibition of RND efflux pump in Pseudomonas aeruginosa PAO1 assessed as potentiation of minocycline-induced antibacterial activity at 8 ug/ml after 18 to 24 hrs by checker board assay
Write the number on its own, no unit after it.

Reference set, count: 5
Fc1ccc([C@@H]2CCNC[C@H]2COc2ccc3c(c2)OCO3)cc1: 1.02
c1ccc2c(CN3CCNCC3)cccc2c1: 1.02
NC[C@H]1O[C@H](O[C@H]2[C@H](O)[C@@H](O[C@H]3O[C@H](CO)[C@@H](O)[C@H](N)[C@H]3O)[C@H](N)C[C@@H]2N)[C@H](N)C[C@@H]1O: 1.06
Cl.Cl.Cl.Cl.Cl.Cl.Cl.NC[C@H]1O[C@H](O[C@H]2[C@H](OCCN3CCN(Cc4cccc5ccccc45)CC3)[C@@H](O[C@H]3O[C@H](CO)[C@@H](O)[C@H](N)[C@H]3O)[C@H](N)C[C@@H]2N)[C@H](N)C[C@@H]1O: 0.53
NC[C@H]1C[C@H](C(=O)N[C@H](CCc2ccccc2)C(=O)Nc2ccc3ccccc3c2)N(CCCCCCCCCCCCO[C@@H]2[C@@H](O[C@H]3O[C@H](CO)[C@@H](O)[C@H](N)[C@H]3O)[C@H](N)C[C@H](N)[C@H]2O[C@H]2O[C@H](CN)[C@@H](O)C[C@H]2N)C1: 0.09

// switching to the query compound
// returns reported fractional inhibitory concentration index (FICI) for input `Cl.Cl.Cl.Cl.Cl.Cl.Cl.NC[C@H]1O[C@H](O[C@H]2[C@H](OCCCCCCCCCCCCN3CCN(Cc4cccc5ccccc45)CC3)[C@@H](O[C@H]3O[C@H](CO)[C@@H](O)[C@H](N)[C@H]3O)[C@H](N)C[C@@H]2N)[C@H](N)C[C@@H]1O`
0.19

---

Tested on: Pseudomonas aeruginosa PAO1
method: Inhibition of RND efflux pump in Pseudomonas aeruginosa PAO1 assessed as potentiation of minocycline-induced antibacterial activity by measuring minocycline MIC at 8 ug/ml after 18 to 24 hrs by microbroth dilution assay (reference value: 8 ug/ml)
The compounds listed here are annotated with their MIC.
Your answer should be a plain number; it is taken to be in mg/L.

NC[C@@H]1CN[C@@H](C(=O)N[C@H](CCc2ccccc2)C(=O)Nc2ccc3ccccc3c2)C1: 1

Lookup: MIC / Pseudomonas aeruginosa PAO1 / `Cl.Cl.Cl.Cl.Cl.Cl.Cl.NC[C@H]1O[C@H](O[C@H]2[C@H](OCCN3CCN(Cc4cccc5ccccc45)CC3)[C@@H](O[C@H]3O[C@H](CO)[C@@H](O)[C@H](N)[C@H]3O)[C@H](N)C[C@@H]2N)[C@H](N)C[C@@H]1O`
4

Lab request: please report MIC under test system Pseudomonas aeruginosa PAO1 for `NC[C@H]1O[C@H](O[C@H]2[C@H](OCCCCCCCCCCN3CCN(Cc4cccc5ccccc45)CC3)[C@@H](O[C@H]3O[C@H](CO)[C@@H](O)[C@H](N)[C@H]3O)[C@H](N)C[C@@H]2N)[C@H](N)C[C@@H]1O.O=C(O)C(F)(F)F.O=C(O)C(F)(F)F.O=C(O)C(F)(F)F.O=C(O)C(F)(F)F.O=C(O)C(F)(F)F.O=C(O)C(F)(F)F.O=C(O)C(F)(F)F`
1

---

Tested on: Pseudomonas aeruginosa PAO1
method: Inhibition of RND efflux pump in Pseudomonas aeruginosa PAO1 assessed as potentiation of minocycline-induced antibacterial activity by measuring minocycline MIC at 8 ug/ml after 18 to 24 hrs by microbroth dilution assay (reference value: 8 ug/ml)
property: MIC
// return the numeric value with its unit appended

Here's what some known entries look like.
Cl.Cl.Cl.Cl.Cl.Cl.Cl.NC[C@H]1O[C@H](O[C@H]2[C@H](OCCCCCCCCCCCCN3CCN(Cc4cccc5ccccc45)CC3)[C@@H](O[C@H]3O[C@H](CO)[C@@H](O)[C@H](N)[C@H]3O)[C@H](N)C[C@@H]2N)[C@H](N)C[C@@H]1O: 0.5 µg/mL
Cl.Cl.Cl.Cl.Cl.Cl.Cl.NC[C@H]1O[C@H](O[C@H]2[C@H](OCCCCCCCCN3CCN(Cc4cccc5ccccc45)CC3)[C@@H](O[C@H]3O[C@H](CO)[C@@H](O)[C@H](N)[C@H]3O)[C@H](N)C[C@@H]2N)[C@H](N)C[C@@H]1O: 2 µg/mL

# context switch: different compound, same MIC
Please look up its MIC: `c1ccc2c(CN3CCNCC3)cccc2c1`
8 µg/mL

---

Test system: Enterobacter cloacae
method: Inhibition of RND efflux pump in Enterobacter cloacae isolate 117029 assessed as potentiation of minocycline-induced antibacterial activity by measuring minocycline MIC at 8 ug/ml after 18 to 24 hrs by microbroth dilution assay (reference value: 128 to 256 ug/ml)
The reader will find reported MIC values listed item by item below.
Please respond with the number in µg/mL and leave the unit unwritten.

Cl.Cl.Cl.Cl.Cl.Cl.NC[C@H]1O[C@H](O[C@H]2[C@H](OCCCCCCCCCCCCN3CC[C@@H](c4ccc(F)cc4)[C@H](COc4ccc5c(c4)OCO5)C3)[C@@H](O[C@H]3O[C@H](CO)[C@@H](O)[C@H](N)[C@H]3O)[C@H](N)C[C@@H]2N)[C@H](N)C[C@@H]1O: 4

Returns the measured MIC for the input compound. Input: `Cl.Cl.Cl.Cl.Cl.Cl.Cl.NC[C@H]1O[C@H](O[C@H]2[C@H](OCCCCCCCCCCCCN3CCN(Cc4cccc5ccccc45)CC3)[C@@H](O[C@H]3O[C@H](CO)[C@@H](O)[C@H](N)[C@H]3O)[C@H](N)C[C@@H]2N)[C@H](N)C[C@@H]1O`
8

What does the record list as MIC for `NC[C@H]1C[C@H](C(=O)N[C@H](CCc2ccccc2)C(=O)Nc2ccc3ccccc3c2)N(CCCCCCCCCCCCO[C@@H]2[C@@H](O[C@H]3O[C@H](CO)[C@@H](O)[C@H](N)[C@H]3O)[C@H](N)C[C@H](N)[C@H]2O[C@H]2O[C@H](CN)[C@@H](O)C[C@H]2N)C1` ?
1

Requested read-out: MIC. Entry: `NC[C@@H]1CN[C@@H](C(=O)N[C@H](CCc2ccccc2)C(=O)Nc2ccc3ccccc3c2)C1`
8

Can you look up the measured MIC of `c1ccc2c(CN3CCNCC3)cccc2c1` for me?
128

Using the record for Fc1ccc([C@@H]2CCNC[C@H]2COc2ccc3c(c2)OCO3)cc1 [PAROXETINE] , report its MIC.
64

---

Tested on: Pseudomonas aeruginosa PAO1
method: Inhibition of RND efflux pump in Pseudomonas aeruginosa PAO1 assessed as potentiation of minocycline-induced antibacterial activity by measuring minocycline MIC at 8 ug/ml after 18 to 24 hrs by microbroth dilution assay (reference value: 8 ug/ml)
property: MIC (µg/mL)
The reply should be a number in µg/mL, with the unit left off.

Tell me the measured MIC of `Cl.Cl.Cl.Cl.Cl.Cl.NC[C@H]1O[C@H](O[C@H]2[C@H](OCCCCCCCCCCCCN3CC[C@@H](c4ccc(F)cc4)[C@H](COc4ccc5c(c4)OCO5)C3)[C@@H](O[C@H]3O[C@H](CO)[C@@H](O)[C@H](N)[C@H]3O)[C@H](N)C[C@@H]2N)[C@H](N)C[C@@H]1O` , please.
0.25

Quick check: MIC of `Cl.Cl.Cl.Cl.Cl.Cl.Cl.NC[C@H]1O[C@H](O[C@H]2[C@H](OCCCCCCN3CCN(Cc4cccc5ccccc45)CC3)[C@@H](O[C@H]3O[C@H](CO)[C@@H](O)[C@H](N)[C@H]3O)[C@H](N)C[C@@H]2N)[C@H](N)C[C@@H]1O` ?
4
